# test.system: human MOR (Homo sapiens, UniProt P35372)
# Construct: host or cells: CHO (CHO-hMOR)
# Sequence (P35372 whole entry): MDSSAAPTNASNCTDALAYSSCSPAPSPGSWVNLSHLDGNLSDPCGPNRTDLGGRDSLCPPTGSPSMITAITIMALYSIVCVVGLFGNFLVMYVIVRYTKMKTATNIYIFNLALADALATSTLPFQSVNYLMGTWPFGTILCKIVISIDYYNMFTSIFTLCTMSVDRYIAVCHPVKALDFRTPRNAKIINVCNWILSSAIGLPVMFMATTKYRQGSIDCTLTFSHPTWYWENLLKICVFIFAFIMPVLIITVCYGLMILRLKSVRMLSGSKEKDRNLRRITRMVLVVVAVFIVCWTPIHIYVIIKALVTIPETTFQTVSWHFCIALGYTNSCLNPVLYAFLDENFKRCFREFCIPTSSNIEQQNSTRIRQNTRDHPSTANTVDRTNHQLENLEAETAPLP
# Format: biochemical
# test.parameters: in words
Numbered stars: 1 amine (or outer) side, 2 acyl side, 3 side chain; on linkers, the order of the positions; unused ones are H or OH. Square brackets hold non-standard residues; d marks the D form. Peptide text beside a SMILES is read from it. X1 = O=C1[C@@H](N[*:1])Cc2ccccc2CN1CCC(=O)[*:2]; X2 = O=C([C@@H]1Cc2cc(O)ccc2CN1[*:1])[*:2]; Dmt = Cc1cc(O)cc(C)c1C[C@H](N)C(=O)O; Tle = CC(C)(C)[C@H](N)C(=O)O
endpoint: functional profile at the MOR (G protein activation)

- Cc1cc(O)cc(C)c1C[C@H](N)C(=O)N[C@H](CCCNC(=N)N)C(=O)N[C@H]1Cc2ccccc2CN(CCC(=O)N[C@@H](CCCNC(=N)N)C(=O)N[C@@H](CCCNC(=N)N)C(=O)N2CCC[C@H]2C(=O)N2Cc3ccc(O)cc3C[C@H]2C(=O)N[C@H](C(=O)N[C@@H](CC(C)C)C(=O)O)C(C)(C)C)C1=O [peptide 9] (H-[Dmt][dR][X1]RRP[X2][Tle]L-OH): very potent agonists
- Cc1cc(O)cc(C)c1C[C@H](NC(=O)[C@@H]1CCCN1C(=O)[C@H](CCCNC(=N)N)NC(=O)[C@H](CCCNC(=N)N)NC(=O)CCN1Cc2ccccc2C[C@H](NC(=O)[C@@H](CCCNC(=N)N)NC(=O)[C@@H](N)Cc2c(C)cc(O)cc2C)C1=O)C(=O)N[C@H](C(=O)N[C@@H](CC(C)C)C(=O)O)C(C)(C)C [compound 5] (H-[Dmt][dR][X1]RRP[Dmt][Tle]L-OH): very potent agonists
